# Phage binding ELISA signal, Anti-PSMA Fab with PSMA antigen per entry
- experimentalSystem: T1, PSMA Fab (biotinylated (site not stated))
- T1 construct: also called Anti-PSMA Fab; 006 PSMA Fab
- assayMethodText: clonal phage ELISA; PSMA Fab wells pre-incubated with PSMA antigen as competitor; anti-M13-HRP detection
Where no end group is shown, it is not given here.

Previously resolved entries follow.
binder	assayResult
LNNWCTPLWMCQMF [Phage-2628]	0.201
MTQWCIPEWMCSEE [Phage-2624]	0.0648
MNKWCTPAWMCEVV (cysteine pairing not given here; also: displayed on phage as pIII fusion) [Phage-2619]	0.095
THHWCIPAWMCEQD [Phage-2633]	0.0809
VVPRCTPPWMCLVS [Phage-2629]	0.0785

Alright, here's another binder for you.
Prompt: What value of Phage binding ELISA signal, Anti-PSMA Fab with PSMA antigen has been recorded for this entry: VEMLCKPAWMCANQ (cysteine pairing not given here; also: displayed on phage as pIII fusion) [Phage-2626]
Completion: 0.0829
